# system: T1, Lsb3, P43603
# T1 sequence (P43603 385-451, looked up): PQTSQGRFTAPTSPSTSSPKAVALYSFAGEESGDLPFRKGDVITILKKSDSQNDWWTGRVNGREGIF
# protocol-details: SPOT array
# condition-label: median of control spots 406
measured-endpoint: SPOT intensity
Answers are plain numbers.

[[record]]
binder = "NSMRPPLLIPAATTK"
measured_endpoint = "SPOT intensity"
measured = 25


Give SPOT intensity for each listed item.
1. PSTMDFPKLPSFQNS
2. FTLPPPPPPPGLDEL
3. STPQTMRQAPKRPDA

(A)
[21, 0, 45]
